Test Details: DRUGMATRIX: Platelet-Derived Growth Factor (PDGF) radioligand binding (ligand: [125I] PDGF)
Assay type: cell-based
Run Conditions: nih3t3; Not Active = under 50% inhibition at 10 µM
Endpoint Name: IC50

Molecule	IC50
Nc1ccc(Cc2ccc(N)cc2)cc1	Not Active
OC[C@H]1O[C@@H]2O[C@H]3[C@H](O)[C@@H](O)[C@@H](O[C@H]4[C@H](O)[C@@H](O)[C@@H](O[C@H]5[C@H](O)[C@@H](O)[C@@H](O[C@H]6[C@H](O)[C@@H](O)[C@@H](O[C@H]7[C@H](O)[C@@H](O)[C@@H](O[C@H]1[C@H](O)[C@H]2O)O[C@@H]7CO)O[C@@H]6CO)O[C@@H]5CO)O[C@@H]4CO)O[C@@H]3CO	Not Active
O=C(O)c1cc(/N=N/c2ccc(S(=O)(=O)Nc3ccccn3)cc2)ccc1O	Not Active
O=C1CC[C@@]2(O)[C@H]3Cc4ccc(O)c5c4[C@@]2(CCN3CC2CC2)[C@H]1O5 [NALTREXONE]	Not Active
O=[As][O-].[Na+] [SODIUM ARSENITE]	Not Active

Give IC50 for each of the items listed below.
1. CC(C)NCC(O)COc1ccc(CC(N)=O)cc1 (configuration not stated)
2. CCN1CCN(C(=O)N[C@@H](C(=O)N[C@@H]2C(=O)N3[C@@H]2SC(C)(C)[C@@H]3C(=O)O)c2ccccc2)C(=O)C1=O
3. CC(N)C12CC3CC(CC(C3)C1)C2 (configuration not stated)
4. O=C(c1ccccc1)c1ccc2n1CCC2C(=O)O (configuration not stated)
5. C=CCO
6. O=C1CN(/N=C/c2ccc([N+](=O)[O-])o2)C(=O)N1
7. CCN1CCCC1CNC(=O)c1cc(S(N)(=O)=O)ccc1OC (configuration not stated) [SULPIRIDE]

1. Not Active
2. Not Active
3. Not Active
4. Not Active
5. Not Active
6. Not Active
7. Not Active

----------
Assayed Target: Adenosine receptor A1 (Homo sapiens, UniProt P30542); also: in other assays of this panel Not Active means under 50% inhibition at 10 µM;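 also: radioligand binding assay at the adenosine A1 receptor, with DPCPX serving as the labelled ligand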
Sequence (P30542 whole entry): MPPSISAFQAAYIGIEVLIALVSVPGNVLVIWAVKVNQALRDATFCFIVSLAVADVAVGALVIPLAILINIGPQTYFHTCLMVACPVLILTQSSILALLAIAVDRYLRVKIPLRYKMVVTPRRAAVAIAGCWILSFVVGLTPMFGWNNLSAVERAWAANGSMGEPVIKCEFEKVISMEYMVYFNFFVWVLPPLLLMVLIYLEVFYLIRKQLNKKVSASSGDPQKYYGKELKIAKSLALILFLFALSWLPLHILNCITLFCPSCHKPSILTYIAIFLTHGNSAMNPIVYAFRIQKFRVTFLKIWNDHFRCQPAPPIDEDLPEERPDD
Assay type: cell membranes, CHO, Membrane
Run Conditions: cho
Endpoint Name: IC50

Example compounds with recorded IC50:
Compound	IC50
CC1(COc2ccc(CC3SC(=O)NC3=O)cc2)CCCCC1 (stereo unspecified)	Not Active
Nc1nc(N)c2nc(CNc3ccc(C(=O)N[C@@H](CCC(=O)O)C(=O)O)cc3)cnc2n1	Not Active
O=c1[nH]cnc2c1ncn2[C@H]1CC[C@@H](CO)O1	Not Active
Oc1ncnc2[nH]ncc12	Not Active
C=C(Cl)Cl	Not Active
O=[As][O-].[Na+] [SODIUM ARSENITE]	Not Active

I need IC50 for every entry listed below, if you could help.
1. CCN(CC)CCNC(=O)c1cc(Cl)c(N)cc1OC [METOCLOPRAMIDE]
2. NC(=O)NC(=O)Cc1ccccc1 [PHENACEMIDE]
3. C=CCN1CC[C@]23c4c5ccc(O)c4O[C@H]2/C(=N/N=C2\CC[C@@]4(O)[C@H]6Cc7ccc(O)c8c7[C@@]4(CCN6CC=C)[C@H]2O8)CC[C@@]3(O)[C@H]1C5
4. C[C@H](C(=O)O)c1ccc2oc(-c3ccc(F)cc3)nc2c1
5. CC#C[C@]1(O)CC[C@H]2[C@@H]3CCC4=CC(=O)CCC4=C3[C@@H](c3ccc(N(C)C)cc3)C[C@@]21C

1: Not Active; 2: Not Active; 3: Not Active; 4: Not Active; 5: Not Active

Please supply IC50 for each of the following items, keeping them in order.
1. CC(=O)[C@]1(O)Cc2c(O)c3c(c(O)c2[C@@H](O[C@H]2C[C@H](N)[C@H](O)[C@H](C)O2)C1)C(=O)c1ccccc1C3=O
2. Nc1nc(N)c2nc(-c3ccccc3)c(N)nc2n1
3. ClC1=C(Cl)[C@]2(Cl)[C@@H]3[C@@H]4C[C@@H]([C@H]5O[C@@H]45)[C@@H]3[C@@]1(Cl)C2(Cl)Cl
4. CO[C@H]1O[C@@H]2O[C@@]3(C)CC[C@H]4[C@H](C)CC[C@@H]([C@H]1C)[C@@]24OO3
5. COc1ccc(Cl)cc1C(=O)NCCc1ccc(S(=O)(=O)NC(=O)NC2CCCCC2)cc1 [GLYBURIDE]

["Not Active", "Not Active", "Not Active", "Not Active", "Not Active"]

Please report IC50 for every entry that follows.
1. CCN1CCN(c2cc3c(cc2F)c(=O)c(C(=O)O)cn3C2CC2)CC1
2. CCN1CCN(C(=O)N[C@@H](C(=O)N[C@@H]2C(=O)N3[C@@H]2SC(C)(C)[C@@H]3C(=O)O)c2ccccc2)C(=O)C1=O
3. CCN(CC)C(=S)SSC(=S)N(CC)CC
4. O=c1[nH]c2ccccc2c2ccccc12
5. CC1(C)[C@H](C(=O)O)N2C(=O)C[C@H]2S1(=O)=O
6. CC(C)(c1ccc(O)cc1)c1ccc(O)cc1
7. Cc1ccnc2c1NC(=O)c1cccnc1N2C1CC1

1: Not Active; 2: Not Active; 3: Not Active; 4: Not Active; 5: Not Active; 6: Not Active; 7: Not Active

For the 4 compounds below, give their IC50 values.
1. OC[C@H]1O[C@@H]2O[C@H]3[C@H](O)[C@@H](O)[C@@H](O[C@H]4[C@H](O)[C@@H](O)[C@@H](O[C@H]5[C@H](O)[C@@H](O)[C@@H](O[C@H]6[C@H](O)[C@@H](O)[C@@H](O[C@H]7[C@H](O)[C@@H](O)[C@@H](O[C@H]1[C@H](O)[C@H]2O)O[C@@H]7CO)O[C@@H]6CO)O[C@@H]5CO)O[C@@H]4CO)O[C@@H]3CO
2. O=C(O)COC(=O)Cc1ccccc1Nc1c(Cl)cccc1Cl
3. CC(=O)O[C@]1(C(C)=O)CC[C@H]2[C@@H]3C[C@H](C)C4=CC(=O)CC[C@]4(C)[C@H]3CC[C@@]21C [MEDROXYPROGESTERONE ACETATE]
4. C#C[C@]1(O)CC[C@H]2[C@@H]3CCC4=CC(=O)CC[C@@H]4[C@H]3CC[C@@]21C

Not Active
Not Active
Not Active
Not Active
